Tested Target: T1, human IL-33 (R&D Systems, #3625-IL-010/CF) (human, UniProt O95760 112-270)
T1 construct: Commercial recombinant protein; also called hIL-33; interleukin-33
T1 sequence (looked up): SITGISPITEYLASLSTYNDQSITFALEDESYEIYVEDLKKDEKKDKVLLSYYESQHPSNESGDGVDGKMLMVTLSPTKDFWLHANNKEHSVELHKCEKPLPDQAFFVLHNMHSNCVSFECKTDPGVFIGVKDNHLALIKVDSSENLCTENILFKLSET
Test Description: SPR 37C, pH6.0 chase, mAb captured

Binder	t½ Ratio (pH 7.4/pH 6.0)
H4H9629P (antibody, human IgG4, V domains shown, Human IgG4 Fc (H4H)) VH: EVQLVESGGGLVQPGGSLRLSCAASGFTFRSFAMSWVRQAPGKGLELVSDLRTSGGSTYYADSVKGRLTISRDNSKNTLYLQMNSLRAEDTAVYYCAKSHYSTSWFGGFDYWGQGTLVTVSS VL: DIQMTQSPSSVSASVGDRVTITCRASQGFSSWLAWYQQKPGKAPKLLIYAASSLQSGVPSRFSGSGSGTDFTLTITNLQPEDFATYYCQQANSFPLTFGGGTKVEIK	9
H1M9566N (antibody, mouse IgG1, V domains shown, Human variable domains, mouse IgG1 Fc (H1M)) VH: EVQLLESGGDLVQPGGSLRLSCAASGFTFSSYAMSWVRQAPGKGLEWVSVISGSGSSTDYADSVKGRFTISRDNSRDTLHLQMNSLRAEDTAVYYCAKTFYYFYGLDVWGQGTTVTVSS VL: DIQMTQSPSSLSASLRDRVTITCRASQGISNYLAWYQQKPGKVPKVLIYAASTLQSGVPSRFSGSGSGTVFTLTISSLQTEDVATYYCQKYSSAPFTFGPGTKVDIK	3.4
H4H9670P (antibody, V domains shown, Human IgG4 Fc (H4H)) VH: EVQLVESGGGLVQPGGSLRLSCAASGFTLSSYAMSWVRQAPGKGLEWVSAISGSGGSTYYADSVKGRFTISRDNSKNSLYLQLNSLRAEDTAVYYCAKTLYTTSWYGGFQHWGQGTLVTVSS VL: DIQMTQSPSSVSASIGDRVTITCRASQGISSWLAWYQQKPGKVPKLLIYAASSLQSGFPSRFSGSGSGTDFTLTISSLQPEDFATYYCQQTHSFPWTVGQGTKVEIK	4.9
H4H9659P (antibody, human IgG4, V domains shown, Human IgG4 Fc (H4H)) VH: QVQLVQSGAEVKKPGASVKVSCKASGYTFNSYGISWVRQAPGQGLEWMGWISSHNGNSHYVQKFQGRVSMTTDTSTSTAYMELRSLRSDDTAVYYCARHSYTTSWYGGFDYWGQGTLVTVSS VL: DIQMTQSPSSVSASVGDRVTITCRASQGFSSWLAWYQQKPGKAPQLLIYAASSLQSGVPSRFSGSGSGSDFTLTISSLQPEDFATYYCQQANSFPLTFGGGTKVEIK	7.4
H1M9559N (antibody, mouse IgG1, V domains shown, Human variable domains, mouse IgG1 Fc (H1M)) VH: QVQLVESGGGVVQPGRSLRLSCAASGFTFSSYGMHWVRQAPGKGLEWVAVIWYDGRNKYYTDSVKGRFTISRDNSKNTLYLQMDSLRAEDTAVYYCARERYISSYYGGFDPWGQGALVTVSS VL: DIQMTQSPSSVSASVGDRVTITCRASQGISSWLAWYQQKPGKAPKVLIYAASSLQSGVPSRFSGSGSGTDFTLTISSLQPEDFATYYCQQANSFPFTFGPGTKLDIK	1

These entries and their values trace back to patent US20160362487A1.
